From: patent US12590123B2

Reported IC50 values follow for various molecules
# systemName: activated hepsin (Homo sapiens, UniProt P05981)
# Construct: purchased R&D Systems 4776-SE-010
# Sequence (P05981 163-417 limits assumed): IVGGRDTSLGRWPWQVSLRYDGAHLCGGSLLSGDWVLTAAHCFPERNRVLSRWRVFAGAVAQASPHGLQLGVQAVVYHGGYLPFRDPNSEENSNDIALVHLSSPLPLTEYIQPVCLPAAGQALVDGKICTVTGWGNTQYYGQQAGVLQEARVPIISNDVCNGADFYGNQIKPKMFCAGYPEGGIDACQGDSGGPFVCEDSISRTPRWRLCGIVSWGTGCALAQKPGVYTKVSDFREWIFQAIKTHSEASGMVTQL
# Sequence (P05981 1-162 partner limits assumed): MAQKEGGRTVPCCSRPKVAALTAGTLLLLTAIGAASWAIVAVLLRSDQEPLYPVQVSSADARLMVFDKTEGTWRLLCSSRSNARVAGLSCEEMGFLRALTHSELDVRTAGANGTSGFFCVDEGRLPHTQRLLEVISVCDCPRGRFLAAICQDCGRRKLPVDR
# assayRemarks: Fluorescent kinetic enzyme assay of hepsin activity (Boc-QAR-AMC)
# Type: biochemical
# testSettings: Table 2; read-out: Hepsin (IC50 nM)
quantityName: IC50 (nM)

molecule | quantityName | unitOfMeasure | endpointResult
CC(=O)N[C@H]1Cc2ccc(cc2)OC/C=C\CNC(=O)CC[C@@H](C(=O)N[C@@H](CCCNC(=N)N)C(=O)c2nc3ccccc3s2)NC(=O)[C@H](CC(C)C)NC1=O | IC50 | nM | 6.31
CC(C)C[C@@H]1NC(=O)[C@@H](N)CCCCNC(=O)C[C@@H](C(=O)N[C@@H](CCCNC(=N)N)C(=O)c2nc3ccccc3s2)NC1=O | IC50 | nM | 92
CC(=O)N[C@H]1CC(=O)NCCCC[C@@H](C(=O)N[C@@H](CCCNC(=N)N)C(=O)c2nc3ccccc3s2)NC(=O)[C@H]([C@H](C)O)NC1=O | IC50 | nM | 5.8
CC(=O)N[C@H]1CC(=O)NCCCC[C@@H](C(=O)N[C@@H](CCCNC(=N)N)C(=O)c2nc3ccccc3s2)NC(=O)[C@H](CC(C)C)NC1=O | IC50 | nM | 8.4
CC(C)C[C@@H]1NC(=O)[C@@H](N)CC(=O)NCCCC[C@@H](C(=O)N[C@@H](CCCNC(=N)N)C(=O)c2nc3ccccc3s2)NC1=O | IC50 | nM | 0.46
CC(=O)N[C@H]1CC(=O)N(C)CCCC[C@@H](C(=O)N[C@@H](CCCNC(=N)N)C(=O)c2nc3ccccc3s2)NC(=O)[C@H](CC(C)C)NC1=O [VD4192C1] | IC50 | nM | 0.97
CC(=O)N[C@@H](Cc1ccc(O)c([N+](=O)[O-])c1)C(=O)N[C@@H](CC(C)C)C(=O)N[C@@H](Cc1ccc(Br)cc1)C(=O)N[C@H](CCCNC(=N)N)C(=O)c1nc2ccccc2s1 [VD4112A] | IC50 | nM | 23.9
CC(=O)N[C@H]1CCCCNC(=O)CC[C@@H](C(=O)N[C@@H](CCCNC(=N)N)C(=O)c2nc3ccccc3s2)NC(=O)[C@H](CC(C)C)NC1=O | IC50 | nM | 1.7
CC(=O)N[C@H]1CCCCNC(=O)CCC(C(=O)N[C@H](CCCNC(=N)N)C(=O)c2nc3ccccc3s2)NC(=O)[C@H](CCCNC(=N)N)NC1=O (stereo partly shown) [VD2109A] | IC50 | nM | 0.14
CC(=O)N[C@H]1Cc2ccc(cc2)OC/C=C\C[C@@H](C(=O)N[C@@H](CCCNC(=N)N)C(=O)c2nc3ccccc3s2)NC(=O)[C@H](CC(C)C)NC1=O | IC50 | nM | 0.141
CC(=O)N[C@H]1Cc2ccc(cc2)OC/C=C\C[C@@H](C(=O)NC(CCCNC(=N)N)C(=O)c2nc3ccccc3s2)NC(=O)[C@H](CC(C)C)NC1=O (stereo partly shown) [VD4010A] | IC50 | nM | 1.14
CC(=O)N[C@H]1CCCCn2cc(nn2)C[C@H](C(=O)N[C@@H](CCCNC(=N)N)C(=O)c2nc3ccccc3s2)NC(=O)[C@H](CC(C)C)NC1=O | IC50 | nM | 117
CC(=O)N[C@H]1CC(=O)NCCCC[C@@H](C(=O)N[C@@H](CCCNC(=N)N)C(=O)c2nc3ccccc3s2)NC(=O)[C@H](C)NC1=O | IC50 | nM | 8.8
CC(=O)N[C@H]1Cc2ccc(cc2)OCCCC[C@@H](C(=O)N[C@@H](CCCNC(=N)N)C(=O)c2nc3ccccc3s2)NC(=O)[C@H](Cc2ccccc2)NC1=O | IC50 | nM | 0.331
CC(=O)N[C@H]1CCC(=O)NCCCC[C@@H](C(=O)N[C@@H](CCCNC(=N)N)C(=O)c2nc3ccccc3s2)NC(=O)[C@H](CC(C)C)NC1=O | IC50 | nM | 8.4
CC(=O)N[C@@H](Cc1ccc(O)c([N+](=O)[O-])c1)C(=O)N[C@@H](CC(C)C)C(=O)N[C@@H](Cc1ccc(Br)cc1)C(=O)N[C@@H](CCCNC(=N)N)C(=O)c1nc2ccccc2s1 | IC50 | nM | 1.15
CC(=O)N[C@H]1CC(=O)NCCCC[C@@H](C(=O)N[C@@H](CCCNC(=N)N)C(=O)c2nc3ccccc3s2)NC(=O)[C@H](CC(N)=O)NC1=O | IC50 | nM | 10.1
CC(=O)N[C@H]1CC(=O)N(C)CCCC[C@@H](C(=O)N[C@@H](CCCNC(=N)N)C(=O)c2nc3ccccc3s2)NC(=O)[C@H](CC(C)C)NC1=O [VD4192C2] | IC50 | nM | 1.75
CC(=O)N[C@H]1CCCCNC(=O)C[C@@H](C(=O)N[C@@H](CCCNC(=N)N)C(=O)c2nc3ccccc3s2)NC(=O)[C@H](CC(C)C)NC1=O | IC50 | nM | 25.1
CC(C)C[C@@H]1NC(=O)[C@@H](N)CCCCNC(=O)CC[C@@H](C(=O)N[C@@H](CCCNC(=N)N)C(=O)c2nc3ccccc3s2)NC1=O | IC50 | nM | 11.9
CC(=O)N[C@H]1Cc2ccc(cc2)OCCCC[C@@H](C(=O)N[C@H](CCCNC(=N)N)C(=O)c2nc3ccccc3s2)NC(=O)[C@H](Cc2ccccc2)NC1=O [VD4111A] | IC50 | nM | 12.7
CC(=O)N[C@H]1CCCCNC(=O)CCC(C(=O)N[C@@H](CCCNC(=N)N)C(=O)c2nc3ccccc3s2)NC(=O)[C@H](CCCNC(=N)N)NC1=O (stereo partly shown) [VD2109B] | IC50 | nM | 0.04
